# credit: PubChem BioAssay AID256

Entries and their T/C
System: CD2F1 mice, L1210 leukemia ip, survival T/C
Experiment: NCI In Vivo Anticancer Drug Screen. Data for tumor model L1210 Leukemia (intraperitoneal) in CD2F1 (CDF1) mice
Settings: endpoint: mean survival time; dose: 200.0 mg/kg/injection; schedule: Q01DX009 (ip); vehicle: saline with Tween-80; higher = longer survival
Experimental: The antitumor activity of compounds was measured in mice bearing transplantable tumors. Survival or tumor size were measured and the results are expressed as the measurement made in the treated group (T) divided by the measurement made in the vehicle treated control group (C). The tumor model used in this assay is L1210 Leukemia (intraperitoneal) in CD2F1 (CDF1) mice
Inconclusive results and toxic doses are left out.

Recorded T/C, per entry:
C=C(C)/C([O-])=N/[N+](C)(C)CC(O)CCCCCCCCCCCC (stereo unspecified) | 97 % of control
CC1=NN(c2ccc(S(=O)(=O)O)cc2)C(=O)C1 | 87 % of control
O=C(Nc1ccc(Cl)cc1Cl)SCCO | 101 % of control
O=C1C=CC(=O)N1c1ccc(Oc2ccc(Cl)cc2)cc1 | 88 % of control

Field request: T/C | item: O=C(Nc1ccccc1)c1ccc(S(=O)(=O)F)cc1
106 % of control

Field request: T/C | item: COC(=O)C(C(=O)OC)=C(C(=O)OC)C(=O)OC
96 % of control

Field request: T/C | item: COc1cc(OC)c(NC(=O)Nc2c(C)n(C)n(-c3ccccc3)c2=O)cc1Cl
89 % of control

Field request: T/C | item: CCCN1COC(OCC)C(C)(C)C1 (stereo unspecified)
106 % of control

Field request: T/C | item: O=C1C=C(c2ccccc2)C(c2ccccc2)C(c2ccccc2)C1 (stereo unspecified)
93 % of control

Field request: T/C | item: O=S(=O)(/N=C1\C=CC=C\C1=N/S(=O)(=O)c1ccccc1)c1ccccc1
92 % of control
